Target: T1, melanocortin-1 receptor (mouse (B-16 melanoma cells); in some …, UniProt Q01727 1-315)
T1 construct: whole, on cells; membrane homogenates; also called MC1-R; mouse B16 MC1-R
T1 sequence (Q01727 whole entry): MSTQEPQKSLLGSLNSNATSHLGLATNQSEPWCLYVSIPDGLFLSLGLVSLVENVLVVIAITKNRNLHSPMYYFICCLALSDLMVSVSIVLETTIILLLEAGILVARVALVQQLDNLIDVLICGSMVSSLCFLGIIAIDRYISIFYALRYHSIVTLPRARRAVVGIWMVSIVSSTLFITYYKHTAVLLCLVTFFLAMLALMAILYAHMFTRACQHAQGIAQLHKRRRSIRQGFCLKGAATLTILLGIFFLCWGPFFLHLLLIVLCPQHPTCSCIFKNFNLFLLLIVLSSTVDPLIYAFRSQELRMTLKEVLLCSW
Test: [I125]-NDP-α-MSH competition, MC1-R membranes
Method: A competitive inhibition binding assay was performed for exemplified peptides according to the invention using membrane homogenates prepared from HEK-293 cells that express recombinant hMC4-R, hMC3-R, or hMC5-R, and from B-16 mouse melanoma cells (containing endogenous MC1-R). […] Filters were dried and counted in a gamma counter for bound radioactivity. […] Ki values for test peptides of the present invention were determined using Graph-Pad Prism® curve-fitting software.
Positions of bridges follow the written chain, without caps; N, C: chain ends. Non-standard residues stand in square brackets, D forms with d. dPhe(4-CN) = N#Cc1ccc(C[C@@H](N)C(=O)O)cc1; dPhe(4-F) = N[C@H](Cc1ccc(F)cc1)C(=O)O; dPhe(2-F) = N[C@H](Cc1ccccc1F)C(=O)O; Orn = NCCC[C@H](N)C(=O)O
Rule: Ki below 100 nM gives Y, anything at or above gives N.

Example cases with answers are listed next.
>>> discrete_label("Ac-RES[dPhe(2-F)]RW[Orn]-NH2 (lactam 2-7, also called No. 58) [Ac-Arg-cyclo(Glu-Ser-D-Phe(2-F)-Arg-Trp-Orn)-NH2]")
"N"
>>> discrete_label("Ac-REP[dPhe(2-F)]RW[Orn]-NH2 (lactam 2-7; SMILES CC(=O)N[C@@H](CCCNC(=N)N)C(=O)N[C@H]1CCC(=O)NCCC[C@@H](C(N)=O)NC(=O)[C@H](Cc2c[nH]c3ccccc23)NC(=O)[C@H](CCCNC(=N)N)NC(=O)[C@@H](Cc2ccccc2F)NC(=O)[C@@H]2CCCN2C1=O, also called No. 66) [Ac-Arg-cyclo(Glu-Pro-D-Phe(2-F)-Arg-Trp-Orn)-NH2]")
"Y"
>>> discrete_label("Ac-REA[dPhe(4-CN)]RW[Orn]-NH2 (lactam 2-7; SMILES CC(=O)N[C@@H](CCCNC(=N)N)C(=O)N[C@H]1CCC(=O)NCCC[C@@H](C(N)=O)NC(=O)[C@H](Cc2c[nH]c3ccccc23)NC(=O)[C@H](CCCNC(=N)N)NC(=O)[C@@H](Cc2ccc(C#N)cc2)NC(=O)[C@H](C)NC1=O, also called No. 41) [Ac-Arg-cyclo(Glu-Ala-D-Phe(4-CN)-Arg-Trp-Orn)-NH2]")
"N"
>>> discrete_label("Ac-REP[dPhe(4-CN)]RW[Orn]-NH2 (lactam 2-7; SMILES CC(=O)N[C@@H](CCCNC(=N)N)C(=O)N[C@H]1CCC(=O)NCCC[C@@H](C(N)=O)NC(=O)[C@H](Cc2c[nH]c3ccccc23)NC(=O)[C@H](CCCNC(=N)N)NC(=O)[C@@H](Cc2ccc(C#N)cc2)NC(=O)[C@@H]2CCCN2C1=O, also called No. 39) [Ac-Arg-cyclo(Glu-Pro-D-Phe(4-CN)-Arg-Trp-Orn)-NH2]")
"N"
>>> discrete_label("Ac-RES[dPhe(4-F)]RW[Orn]-NH2 (lactam 2-7; SMILES CC(=O)N[C@@H](CCCNC(=N)N)C(=O)N[C@H]1CCC(=O)NCCC[C@@H](C(N)=O)NC(=O)[C@H](Cc2c[nH]c3ccccc23)NC(=O)[C@H](CCCNC(=N)N)NC(=O)[C@@H](Cc2ccc(F)cc2)NC(=O)[C@H](CO)NC1=O, also called No. 65) [Ac-Arg-cyclo(Glu-Ser-D-Phe(4-F)-Arg-Trp-Orn)-NH2]")
"Y"

Bench note: check whether XDQXRWK (N-terminal Ac; D-Arg 1; D-Phe(3-Cl) 4; lactam Asp 2-Lys 7; C-terminal NH2, also called No. 80) [Ac-D-Arg-cyclo(Asp-Gln-D-Phe(3-Cl)-Arg-Trp-Lys)-NH2] shows Ki below 100 nM
N

For this binder, is Ki lower than 100 nM? Ac-REP[dPhe(4-F)]RW[Orn]-NH2 (lactam 2-7; also: acetate salt, acetate salt form; also called Ex 67) [Ac-Arg-cyclo(Glu-Pro-D-Phe(4-F)-Arg-Trp-Orn)-NH2]
N
